target-of-assay: T1, cynomolgus monkey soluble IL-6R (from cynomolgus monkey serum) (cynomolgus monkey, UniProt P08887 20-365 (human entry))
T1 construct: Natural soluble IL-6R present in diluted normal cynomolgus monkey serum; also called cyno IL6R; cynomolgous sIL-6R
T1 chain: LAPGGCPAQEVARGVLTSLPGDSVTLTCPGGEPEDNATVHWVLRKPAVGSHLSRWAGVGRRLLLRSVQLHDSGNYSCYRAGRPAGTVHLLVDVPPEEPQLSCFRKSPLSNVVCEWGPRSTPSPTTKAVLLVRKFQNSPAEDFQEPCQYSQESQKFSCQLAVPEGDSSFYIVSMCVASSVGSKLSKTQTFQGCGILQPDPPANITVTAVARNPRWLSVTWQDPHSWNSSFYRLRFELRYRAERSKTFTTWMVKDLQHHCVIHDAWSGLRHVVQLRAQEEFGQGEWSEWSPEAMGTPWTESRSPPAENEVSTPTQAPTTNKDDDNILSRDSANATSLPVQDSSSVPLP
experiment-summary: ratio of gp130 ELISA IC50s on human and cynomolgus sIL-6R
property: Ratio Cyno IC50/human IC50 (title: human IC50 divided by cynomolgous IC50)
Answers are plain numbers.

[in] Give the reported value of Ratio Cyno IC50/human IC50 (title: human IC50 divided by cynomolgous IC50) for this record: 20A11 (prior art comparative example) (VHH, Prior art anti-IL-6R polypeptide disclosed in WO 2010/115998; also called PMP20A11) VHH: EVQLVESGGGLVQPGGSLRLSCAASGSVFKINVMAWYRQAPGKGRELVAGIISGGSTSYADSVKGRFTISRDNAKNTLYLQMNSLRPEDTAVYYCAFITTESDYDLGRRYWGQGTLVTVSS
[out] 2.3

[in] Give Ratio Cyno IC50/human IC50 (title: human IC50 divided by cynomolgous IC50) for 4D3 (VHH, Llama ICVD from library 46-3, produced in E. coli; also called VIL-4D3; not shown: C-terminal Flag and 6xHis tags from vector pMEK222) VHH: EVQLVESGGGSVQAGESLTLSCVASISTFSQNAMGWFRQAAGKRRESVARISSSGNVGYTDAVKGRFTMSRDNAKKTVYLQMNSLKPEDTAVYYCNAYSMSGELAAPWGQGTQVTVSS
[out] 1.9

Further cases:
[in] Using the record for 3C12 (VHH, Llama ICVD from library 37-3, produced in E. coli; also called VIL-3C12; not shown: C-terminal Flag and 6xHis tags from vector pMEK222) VHH: EVQLVESGGGLAQLGGSLRLSCVASGNIFSSNTAGWFRQAPGKQREWVAGISIGGMPAYADSVKGRFTISRDNAKNTVYLQMNSLKPEDTAVYYCATGGTEYDYWGQGTQVTVSS , state its measured Ratio Cyno IC50/human IC50 (title: human IC50 divided by cynomolgous IC50).
[out] 0.9
